- Test system: SEM cells
- assay.method.text: cell viability relative to DMSO control; higher = less cytotoxic
- reported.conditions: HPLM + 10% dialyzed FBS; 48 h; 46.1 µM
measured.metric: cell viability (%)
The reply should contain only the number, in %.

Data request: Consider the compound shown here: CCCOc1ccc(C(=O)OCCN(CC)CC)cc1N What is its recorded cell viability?
Data returned: 97.7

Data request: I am curious: what cell viability value has been reported for CCNC(=O)Nc1ccc(Oc2ncnc(N)c2/C=N/OC)cc1Cl ?
Data returned: 83.1

Data request: What value of measured cell viability is listed for OC[C@H]1O[C@H](C[C@@H]1O)N2/C=C(C(=O)NC2=O)/C(F)(F)F ?
Data returned: 11.8

Data request: Which measured cell viability value corresponds to O=C(O)c1cc(O)c2c(c1)C(=O)c1cccc(O)c1C2=O ?
Data returned: 91.9

Data request: Name the reported cell viability value associated with the compound c1ccc(CNc2nc(NCc3ccccc3)c3ccccc3n2)cc1
Data returned: 32.5

Data request: For the compound COc1ccccc1[C@H](c1cccc2ccccc12)[C@@](C)(C#N)C(=O)N1CCC(c2cccc(C(F)(F)F)c2)CC1 , what cell viability is on record?
Data returned: 39.7

Data request: Field request: cell viability | item: O=C(CN1C(=O)C2(CCCC2)NC[C@H]1c1cc(F)cc(F)c1)Nc1ccc2c(c1)C[C@@]1(C2)C(=O)Nc2ncccc21
Data returned: 104

Data request: What value of cell viability has been reported for the following compound? Nc1n[nH]c2nnc(-c3c(-c4ccccc4)nn4ccccc34)cc12
Data returned: 9.4

Data request: Need cell viability of COc1cc2c(cc1OC)[C@@H]1Cc3ccc(OC)c(OC)c3CN1CC2 , thanks.
Data returned: 109

Value source: the supplement of paper PMC11451515
